# credit: patent US10280138B2

# Test system: transiently ocular hypertensive New Zealand white rabbits
# Assay Remarks: Intraocular pressure (IOP) lowering activity in hypertonic saline-induced IOP increase in rabbits
# Assay type: in vivo
# Condition Notes: 240 min after topical application; treatment group A (Tono-Pen VET); dose (%)
Classify as follows. Reported Mean IOP changes vs vehicle and baseline, 240 min greater than or equal to -2 mmHg: Yes. Reported Mean IOP changes vs vehicle and baseline, 240 min below: No.

QUERY: Please indicate if the recorded Mean IOP changes vs vehicle and baseline, 240 min for CC(C)OC(=O)CCC/C=C\C[C@@H]1[C@@H](/C=C/[C@H](COc2cccc(C(F)(F)F)c2)OC(=O)CCOCC(CO[N+](=O)[O-])O[N+](=O)[O-])[C@H](O)C[C@@H]1O (stereo partly drawn) [Comp. (12)] meets or exceeds -2 mmHg.
RESULT: No

QUERY: Reported Mean IOP changes vs vehicle and baseline, 240 min reaches at least -2 mmHg for CC(C)OC(=O)CCC/C=C\C[C@@H]1[C@@H](/C=C/[C@H](COc2cccc(C(F)(F)F)c2)OC(=O)COCCO[N+](=O)[O-])[C@H](O)C[C@@H]1O [Comp. (11)] ?
RESULT: No

QUERY: Can CC(C)OC(=O)CCC/C=C\C[C@@H]1[C@@H](/C=C/[C@H](COc2cccc(C(F)(F)F)c2)OC(=O)CCCC(CO[N+](=O)[O-])O[N+](=O)[O-])[C@H](O)C[C@@H]1O (stereo partly drawn) [Comp. (10)] be said to have Mean IOP changes vs vehicle and baseline, 240 min at or above -2 mmHg?
RESULT: Yes

QUERY: Could you tell me if the measured Mean IOP changes vs vehicle and baseline, 240 min of O=C(O)CCC/C=C\C[C@@H]1[C@@H](/C=C/[C@H](COc2cccc(C(F)(F)F)c2)OC(=O)CCCC(CO[N+](=O)[O-])O[N+](=O)[O-])[C@H](O)C[C@@H]1O (stereo partly drawn) [Comp. (13)] reaches -2 mmHg or more?
RESULT: Yes

QUERY: Could you verify whether the entry CC(C)OC(=O)CCC/C=C\C[C@@H]1[C@@H](/C=C/[C@@H](O)COc2cccc(C(F)(F)F)c2)[C@H](O)C[C@@H]1O [Fluprostenol isopropyl ester, reference compound] shows Mean IOP changes vs vehicle and baseline, 240 min of no less than -2 mmHg?
RESULT: Yes
